test system: Vero E6 infected with SARS-CoV-2; assay: SARS-CoV-2 infection rate relative to infected DMSO; higher = more infection, active = 60 or less; settings: 24 h
Assign SARS-CoV-2 infection rate to each entry below.
Numbers only, in %.

Solved cases below.
* Oc1ccc2c3c1O[C@H]1c4[nH]c5ccccc5c4C[C@@]4(O)[C@@H](C2)N(CC2CC2)CC[C@]314 [naltrindole] (10 µM) | 106
* O=C(O)c1c(Cl)c(Cl)c(Cl)c(Cl)c1-c1c2cc(I)c(=O)c(I)c-2oc2c(I)c(O)c(I)cc12 [rose-bengal] (0.833333 µM) | 98.2
* CN1CCC[C@@H]1Cc1c[nH]c2ccc(CCS(=O)(=O)c3ccccc3)cc12 [eletriptan] (10 µM) | 102
* Cn1ncc(Cl)c1-c1cc(C(=O)N[C@H](CN)Cc2cccc(F)c2)sc1Cl (10 µM) | 107
* Cc1c(-c2cnccn2)ssc1=S [oltipraz] (10 µM) | 109

Each compound below has a reported value. Please supply its SARS-CoV-2 infection rate.
1. CCCc1ncc(C[n+]2ccccc2C)c(N)n1 [amprolium] (10 µM)
2. N#Cc1cc2c(OCC(O)CN3CCN(C(c4ccccc4)c4ccccc4)CC3)cccc2[nH]1 (configuration not stated) (0.833333 µM)
3. O=c1cc(N2CCNCC2)oc2c(-c3ccccc3)cccc12 (10 µM)
4. C[C@@H](O[C@H]1OCCN(Cc2nn[nH]c2CN(C)C)[C@H]1c1ccc(F)cc1)c1cc(C(F)(F)F)cc(C(F)(F)F)c1 (10 µM)
5. CN1CCc2nc(C(=O)N[C@@H]3C[C@@H](C(=O)N(C)C)CC[C@@H]3NC(=O)C(=O)Nc3ccc(Cl)cn3)sc2C1 [edoxaban] (10 µM)
6. C[C@](N)(Cc1ccc(O)cc1)C(=O)O [metirosine] (10 µM)
7. O=C1c2ccccc2-c2n[nH]c3cccc1c23 [pyrazolanthrone] (10 µM)

104
75
101
58
94.5
112
106

# batch size: 3; output SARS-CoV-2 infection rate per entry
1. CN(C(=O)c1ccc(F)cc1C(F)(F)F)C1CCN(c2nnc(-c3ccnn3C)c3ccccc23)CC1 [taladegib] (10 µM)
2. CC(C)c1cc(-c2n[nH]c(=O)n2-c2ccc3c(ccn3C)c2)c(O)cc1O [ganetespib] (0.833333 µM)
3. C#Cc1cccc(Nc2ncnc3cc(OCCOC)c(OCCO)cc23)c1 (10 µM)

102
111
116

Need SARS-CoV-2 infection rate for each of these compounds.
1. CC1C=CC=CCCC=CC=CC=CC=CC(OC2OC(C)C(O)C(N)C2O)CC2OC(O)(CC(O)C(O)CCC(O)CC(O)CC(O)CC(=O)OC(C)C(C)C1O)CC(O)C2C(=O)O (configuration not stated) [nystatin] (10 µM)
2. O=C(O)CCCNC(=O)c1cccnc1 [pikamilone] (10 µM)

1: 116; 2: 100

====

tested on: Vero E6 infected with SARS-CoV-2; assay: inhibition of SARS-CoV-2 cytopathic effect; higher = more antiviral protection, active = above 15; settings: 100 nM; 48 h
quantity_kind: inhibition of SARS-CoV-2 cytopathic effect (%)
Numbers only, in %.

Some solved entries appear below for comparison.
* O=C(O)c1cc(O)c2ccc(Cl)cc2n1 | 1.02
* Clc1ccc(C2=CCC[C@H]3CC[C@@H]2N3)cn1 | -0.54
* OC[C@H]1O[C@@H](OCCc2ccc(O)cc2)[C@H](O)[C@@H](O)[C@@H]1O [salidroside] | -0.6

Here are 6 molecules. What values of inhibition of SARS-CoV-2 cytopathic effect were reported for them?
1. COc1ccc(CN(C(=O)[C@@H](N)Cc2c(C)cc(C(N)=O)cc2C)[C@@H](C)c2ncc(-c3ccccc3)[nH]2)cc1C(=O)O
2. CC(C)(Sc1cc(C(C)(C)C)c(O)c(C(C)(C)C)c1)Sc1cc(C(C)(C)C)c(O)c(C(C)(C)C)c1
3. Nc1ncnc2c1c(-c1cnc3[nH]ccc3c1)nn2C1CCCC1
4. O=C(Nc1cc(C(F)(F)F)cc(C(F)(F)F)c1)c1cnc(Cl)nc1C(F)(F)F
5. NNCCc1ccccc1
6. NS(=O)(=O)c1ccc2c(c1)C1C=CCC1C(c1ccc(Br)cc1)N2 (centres undefined)

1. 0.96
2. 0.1
3. 0.41
4. 0.4
5. -0.27
6. -1.73

====

system: Vero E6 infected with SARS-CoV-2; assay: inhibition of SARS-CoV-2 cytopathic effect; higher = more antiviral protection, active = above 15; settings: 100 nM; 48 h
Give measured inhibition of SARS-CoV-2 cytopathic effect for each item. Keep answers brief.

Would you mind listing inhibition of SARS-CoV-2 cytopathic effect for each of the following molecules?
1. CC#CC(=O)N1CCC[C@H]1c1nc(-c2ccc(C(=O)Nc3ccccn3)cc2)c2c(N)nccn12
2. O=C(NCCCN1CCOCC1)c1ccc(Cl)cc1 [eprobemide]
3. Cn1c2cc([S+](C)[O-])sc2c2cnn(Cc3cccc(N)c3)c(=O)c21 (centres undefined)
4. CC(C)(N)c1cc(C(=O)N[C@@H]2CCc3ccc(Oc4ccnc5c4CCC(=O)N5)cc3C2)cc(C(F)(F)F)c1
5. CCN(CC)CCOC(=O)C(Cc1cccc2ccccc12)CC1CCCO1 (mixture of isomers)
6. O=C(CN1CCNCC1)NC1CCCCC1
7. CN1CC(O)C2=C/C(=N/NC(N)=O)C(=O)C=C21 (centres undefined)

1. 0.31% (inactive)
2. 4.31% (inactive)
3. 5.04% (inactive)
4. 1.9% (inactive)
5. 2.4% (inactive)
6. -0.45% (inactive)
7. -0.28% (inactive)

Dear colleague, could you please provide inhibition of SARS-CoV-2 cytopathic effect for the molecules listed below?
1. CN[C@@H]1[C@@H](O)[C@@H](O[C@@H]2[C@@H](O)[C@H](O[C@H]3OC(CN)=CC[C@H]3N)[C@@H](N)C[C@H]2N)OC[C@]1(C)O [Sisomicin (sulfate)]
2. O=[N+]([O-])c1c(Nc2cc(F)cc(Cl)c2)ccc2nonc12

1: 0.885% (inactive); 2: 1.45% (inactive)

For every item below, please supply its inhibition of SARS-CoV-2 cytopathic effect.
1. COc1cccc(CCc2ccccc2OCC(CN(C)C)OC(=O)CCC(=O)O)c1 (centres undefined) [sarpogrelate]
2. NCCCCN
3. C=C[C@H]1CN2CC[C@H]1C[C@H]2[C@H](O)c1ccnc2ccccc12
4. Cc1cc(Cl)ccc1OCCCC(=O)NO
5. CCCc1ccc(C(=O)O)cc1

1: -2.81% (inactive); 2: -0.12% (inactive); 3: 2.67% (inactive); 4: 1.23% (inactive); 5: -0.57% (inactive)

====

system: Vero E6 infected with SARS-CoV-2; assay: morphology score (similarity to uninfected cells); higher = more like uninfected cells; conditions: 24 h
Kindly supply the reported morphology score values for the records listed here.
Numbers only.

Below: 3 compounds and their reported morphology score.
* CCOC(=O)c1cc(C#N)c(N2CCC(C(=O)NS(=O)(=O)Cc3ccccc3)CC2)nc1C (10 µM) | 0.128
* O=S1(=O)c2cccc3cccc(c23)N1CCCN1CCN(c2ccc(F)cc2)CC1 [fananserin] (10 µM) | -0.0356
* Cc1cc(C(=O)Nc2cccc(C(=O)Nc3cccc(C(F)(F)F)c3)c2)on1 (10 µM) | -0.209

Specify measured morphology score for COC(=O)[C@@H]1C[C@H](OC(C)=O)C(=O)[C@H]2[C@@]1(C)CC[C@H]1C(=O)O[C@H](c3ccoc3)C[C@]21C [salvinorin-A] (10 µM) .
0.127

====

test system: Vero E6 infected with SARS-CoV-2; experiment: inhibition of SARS-CoV-2 cytopathic effect; higher = more antiviral protection, active = above 15; details: 100 nM; 48 h
quantity_kind: inhibition of SARS-CoV-2 cytopathic effect (%)
Numbers only, in %.

Some molecules with recorded inhibition of SARS-CoV-2 cytopathic effect:
- CCC(=O)c1ccc(OCC(O)CN2CCN(c3ccccc3)CC2)cc1 (stereo not given) [centpropazine]: -2.65
- Cn1ccnc1S [methimazole]: 0.26
- O=C(O)/C=C1\CCCc2ccccc2[C@H]1O (racemic): 1.65
- CCC(=O)[C@@]1(C)[C@H](C)C[C@H]2[C@@H]3CCC4=CC(=O)C=C[C@]4(C)[C@H]3[C@@H](O)C[C@@]21C [rimexolone]: -2.92
- COc1cc2ncnc(Nc3cccc(Br)c3)c2cc1OC: -2.56
- COC(=O)c1ccc(O)cc1 [methylparaben]: 2.76

Report inhibition of SARS-CoV-2 cytopathic effect for each item below.
1. CC1=C(/C=C/C(C)=C/C=C/C(C)=C/C(=O)O)C(C)(C)CCC1 [tretinoin]
2. CCc1cc2c(c(CC)n1)CCC(=O)N2Cc1ccc(-c2ccccc2-c2nnn[nH]2)cc1

[-0.09, -2.79]

Fill in inhibition of SARS-CoV-2 cytopathic effect for each of the 2 molecules listed.
1. CCCN(CCC)C(=O)C1=Cc2ccc(-c3ccc(C(=O)N4CCCC4)cc3)cc2N=C(N)C1 [motolimod]
2. NC(=S)N/N=C/c1coc2ccccc2c1=O.[Cl][Cu][Cl]

1: 1.88; 2: 1.98

// provenance: the supplement of paper PMC13380429
